# Test System: Tubulin alpha chain (Sus scrofa) (UniProt P02550)
# Sequence (P02550 whole entry, looked up): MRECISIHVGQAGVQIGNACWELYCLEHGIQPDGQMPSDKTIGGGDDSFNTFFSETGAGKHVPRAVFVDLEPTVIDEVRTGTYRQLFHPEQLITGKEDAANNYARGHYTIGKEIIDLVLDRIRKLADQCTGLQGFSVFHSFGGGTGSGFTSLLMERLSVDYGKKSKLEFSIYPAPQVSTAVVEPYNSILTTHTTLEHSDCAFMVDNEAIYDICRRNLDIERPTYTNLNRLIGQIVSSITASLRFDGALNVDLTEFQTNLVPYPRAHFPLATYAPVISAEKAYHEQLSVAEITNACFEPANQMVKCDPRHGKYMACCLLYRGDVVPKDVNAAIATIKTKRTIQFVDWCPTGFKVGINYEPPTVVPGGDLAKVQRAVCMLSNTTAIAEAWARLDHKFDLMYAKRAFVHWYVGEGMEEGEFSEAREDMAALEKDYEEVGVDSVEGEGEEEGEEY
# Experimental Details: Inhibitory activity against tubulin polymerization at 2.0 mM concentration
# Assay type: functional
// 0.0 strictly below 50% in inhibition; 1.0 otherwise

Problem: Textbook exercise: given the entry COc1ccc2cc1Oc1ccc(cc1)/C=C\COC(=O)CC2 , state whether its inhibition is greater than or equal to 50%.
Solution: 0.0

###

# Test System: Tubulin alpha chain (Sus scrofa) (UniProt P02550)
# Experimental Details: Inhibitory activity against tubulin polymerization at 1.0 mM concentration
# Type: functional
Measured Parameter: inhibition (%)
Entry rule: numbers only, all in %.

                                   molecule  assay_result
0  COc1ccc2cc1Oc1ccc(cc1)CC(O)COC(=O)CC2 (stereo unspecified)            62
1     COc1ccc2cc1Oc1ccc(cc1)/C=C\COC(=O)CC2            27
2  COc1cc2c(c(OC)c1OC)-c1ccc(OC)c(=O)cc1[C@@H](NC(C)=O)CC2             4
3  COc1ccc2cc1Oc1ccc(cc1)C1OC1COC(=O)CC2 (stereo unspecified)            27
4  COc1c(Br)cc2cc1Oc1ccc(cc1)CC(O)COC(=O)CC2 (stereo unspecified)            39

Okay, next one:
Problem: # lookup: Tubulin alpha chain (Sus scrofa) (UniProt P02550) inhibition, key = COc1ccc2cc1Oc1ccc(cc1)CC(I)COC(=O)CC2 (stereo unspecified)
Solution: 35
